# TEST DETAILS: GDH-TPI coupling enzyme inhibitors, primary screen, artefact control for M. tuberculosis FBA inhibitor project, biochemical, absorbance, full deck (AID 588335);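 note: 0% = DMSO wells and 100% = wells lacking the enzyme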
# MEASUREMENT PARAMETERS: GDH-TPI coupled enzyme counterscreen, NADH absorbance; at 4.8 µM; stronger effect = higher value
Screen size: about 360,000 compounds; about 4,500 (1.2%) were called active. This is one part of a sample in which actives are shown more often than they occur.
Can you tell me inhibition for the items I'm about to list?
Give the value in % but do not write % after it.

Ask: Which inhibition value belongs to `O=C(Cn1cc2c(n1)CCCCC2)NCCN1CCOCC1` ?
Reply: -6.93

Ask: Fill in the blank: the reported inhibition of `COc1ccc(C#Cc2c(-c3ccc(OC)cc3)oc3ccc(-c4ccc5c(c4)OCO5)cc23)cc1` is ____.
Reply: 5.83

Ask: inhibition lookup needed for CC1=NNC(=O)C1CCC(=O)N/N=C\c1cccc(Cl)c1 (centres undefined) , thanks.
Reply: -3.82

Ask: Dear colleague, I am looking for the recorded inhibition of the following compound: `COc1ccc(/C=C(/NC(=O)c2ccco2)C(=O)Nc2ccc(C(C)=O)cc2)cc1`
Reply: 33.5

Numbers sourced from PubChem BioAssay AID588335.
